# Test Target: hGLP-1R (Homo sapiens, UniProt P43220)
# Sequence (P43220 24-463): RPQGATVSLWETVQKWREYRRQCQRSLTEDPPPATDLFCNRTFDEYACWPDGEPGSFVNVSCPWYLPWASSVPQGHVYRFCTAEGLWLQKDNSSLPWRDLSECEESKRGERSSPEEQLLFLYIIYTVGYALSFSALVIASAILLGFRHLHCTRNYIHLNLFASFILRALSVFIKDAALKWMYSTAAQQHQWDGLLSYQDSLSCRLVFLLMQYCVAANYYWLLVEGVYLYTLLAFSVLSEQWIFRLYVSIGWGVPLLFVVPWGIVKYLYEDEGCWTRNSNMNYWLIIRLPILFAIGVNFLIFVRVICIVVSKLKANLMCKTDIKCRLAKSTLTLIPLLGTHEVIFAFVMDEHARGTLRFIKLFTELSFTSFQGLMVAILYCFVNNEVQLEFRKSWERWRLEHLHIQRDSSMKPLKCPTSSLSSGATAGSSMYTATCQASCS
# Test Details: Functional cAMP activity in the presence of 1% HSA
# Assay type: cell-based
# Condition: read-out: cAMP Rel EC50, hGLP-1R
pEC50: −log10 of the molar value. Starred links: 1 amine or outer side, 2 acyl side, 3 side chain; linkers in the order of their positions; H or OH if unused. Non-standard residues stand in square brackets, D forms with d. Groups on a side chain read outwards from the residue. *: point of attachment. C18 diacid = O=C(O)CCCCCCCCCCCCCCCCC(=O)*; αMePhe(2-F) = C[C@](N)(Cc1ccccc1F)C(=O)O; γGlu = O=C(O)[C@H](CCC(=O)[*:2])N[*:1]; αMe4Pal = C[C@](N)(Cc1ccncc1)C(=O)O; αMeY = C[C@](N)(Cc1ccc(O)cc1)C(=O)O; 4Pal = N[C@@H](Cc1ccncc1)C(=O)O; αMeL = CC(C)C[C@](C)(N)C(=O)O; αMeS = C[C@](N)(CO)C(=O)O; Orn = NCCC[C@H](N)C(=O)O; AEEA = NCCOCCOCC(=O)O; Aib = CC(C)(N)C(=O)O
Consider the following substances and their measured pEC50 readings.

Substance | Test Target | pEC50
H-Y[Aib]QGTFTSD[4Pal]SR[αMeL]LDKK([AEEA-γGlu-C18 diacid])AQ[Aib]AFIEYLLE[Aib]GESSGAPPPSGS-NH2 [Example 132] | hGLP-1R (Homo sapiens, UniProt P43220) | 6.08
H-Y[Aib]QGT[αMePhe(2-F)]TSD[4Pal][αMeS]I[αMeL]LD[Orn]QAQ[αMe4Pal]EFI[dE][αMeY]LIEGGPSSGAPPPSGS-NH2 [Example 1232] | hGLP-1R (Homo sapiens, UniProt P43220) | 9.16
H-Y[Aib]QGT[αMePhe(2-F)]TSD[4Pal][αMeS]I[αMeL]LD[Orn]K([γGlu-Glu-C18 diacid])AQ[Aib][Orn]FI[dE][αMeY]LSEGGPSSGEPPPSGTE-NH2 [Example 565] | hGLP-1R (Homo sapiens, UniProt P43220) | 6.69
H-Y[Aib]QGTFTSDFS[Orn][αMeL]LDKK([AEEA-γGlu-C18 diacid])AQ[αMe4Pal]AFIE[αMeY]LIEGGPSSGAPPPSGS-NH2 [Example 845] | hGLP-1R (Homo sapiens, UniProt P43220) | 7.05
H-Y[Aib]QGTFTSDFS[Orn][αMeL]LDKK([AEEA-AEEA-γGlu-C18 diacid])AQ[Aib]AFIEYLLE[dA]GPSSGEPPPSGQ-NH2 [Example 157] | hGLP-1R (Homo sapiens, UniProt P43220) | 6.30
H-Y[Aib]QGTFTSDFS[Orn][αMeL]LDKK([AEEA-γGlu-C18 diacid])AQ[Aib]AFIEWLLEGGSSSGAPPPSGS-NH2 [Example 173] | hGLP-1R (Homo sapiens, UniProt P43220) | 6.53

---

# Test Target: hGIPR (Homo sapiens, UniProt P48546)
# Sequence (P48546 22-466): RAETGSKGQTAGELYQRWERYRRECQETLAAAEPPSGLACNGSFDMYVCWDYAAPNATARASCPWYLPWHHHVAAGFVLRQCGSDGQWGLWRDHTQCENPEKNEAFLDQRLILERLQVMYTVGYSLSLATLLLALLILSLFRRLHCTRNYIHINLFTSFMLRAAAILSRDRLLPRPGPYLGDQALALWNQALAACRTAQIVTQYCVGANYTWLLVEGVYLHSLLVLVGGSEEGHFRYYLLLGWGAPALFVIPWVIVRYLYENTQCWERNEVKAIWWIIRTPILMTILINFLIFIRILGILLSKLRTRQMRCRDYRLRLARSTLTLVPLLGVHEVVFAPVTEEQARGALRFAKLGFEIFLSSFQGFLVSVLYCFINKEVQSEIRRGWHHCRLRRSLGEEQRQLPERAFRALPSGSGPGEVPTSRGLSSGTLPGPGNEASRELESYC
# Test Details: Functional cAMP activity in the presence of 1% HSA
# Assay type: cell-based
# Condition: read-out: cAMP Rel EC50, hGIPR
Starred links: 1 amine or outer side, 2 acyl side, 3 side chain; linkers in the order of their positions; H or OH if unused. Non-standard residues stand in square brackets, D forms with d. Groups on a side chain read outwards from the residue. *: point of attachment. C20 diacid = O=C(O)CCCCCCCCCCCCCCCCCCC(=O)*; C18 diacid = O=C(O)CCCCCCCCCCCCCCCCC(=O)*; αMePhe(2-F) = C[C@](N)(Cc1ccccc1F)C(=O)O; γGlu = O=C(O)[C@H](CCC(=O)[*:2])N[*:1]; NMeY = CN[C@@H](Cc1ccc(O)cc1)C(=O)O; αMe4Pal = C[C@](N)(Cc1ccncc1)C(=O)O; αMeY = C[C@](N)(Cc1ccc(O)cc1)C(=O)O; αMeF = C[C@](N)(Cc1ccccc1)C(=O)O; 4Pal = N[C@@H](Cc1ccncc1)C(=O)O; αMeL = CC(C)C[C@](C)(N)C(=O)O; αMeS = C[C@](N)(CO)C(=O)O; Orn = NCCC[C@H](N)C(=O)O; AEEA = NCCOCCOCC(=O)O; Aib = CC(C)(N)C(=O)O
Rule: EC50 below 10 nM gives True. Equal to or above 10 nM gives False.

Substance | Assigned Class
H-Y[Aib]QGT[αMePhe(2-F)]TSD[4Pal]SILLDKK([γGlu-γGlu-C18 diacid])AQ[Aib]AFIEYLEEGGPSSGAPPPSGSEE-NH2 [Example 610] | True
H-Y[Aib]QGT[αMePhe(2-F)]TSD[4Pal][αMeS]I[αMeL]LD[Orn]K([AEEA-γGlu-C18 diacid])AA[Aib]EFI[dE][αMeY]LIEGGPSSGAPPPSGTEE-NH2 [Example 725] | True
H-[NMeY][Aib]QGT[αMeF]TSDYSILLDKQAAK([AEEA-AEEA-γGlu-C20 diacid])AFVQWLIAGGPSSGEPPPSEG-NH2 [Example 301] | False
H-Y[Aib]QGTFTSDFSK[αMeL]LDKK([AEEA-γGlu-C18 diacid])AQ[Aib]QFIEYLLEGGPSSGAPPPSEG-NH2 [Example 51] | False
H-Y[Aib]QGTFTSDFSK[αMeL]LDKK([AEEA-AEEA-γGlu-C20 diacid])AQ[Aib]AFIEYLLAGGPSSGEPPPSSE-NH2 [Example 5] | False
H-Y[Aib]QGTFTSD[4Pal]SQ[αMeL]LDKK([γGlu-γGlu-C18 diacid])AQ[αMe4Pal]AFIE[αMe4Pal]LIEGGPSSGAPPPSGS-NH2 [Example 951] | False
H-Y[Aib]QGT[αMePhe(2-F)]TSDYSKLLDKIAQK([AEEA-γGlu-C20 diacid])AFIEYLIEGGPSSGAPPPEGE-NH2 [Example 357] | False
H-Y[Aib]QGTFTSDFSK[αMeL]LDKK([AEEA-γGlu-C18 diacid])AQ[Aib]AFIEYLIE[Aib]GESSGAPPPSGE-NH2 [Example 217] | False
H-Y[Aib]QGTFTSD[4Pal]SQ[αMeL]LDKK([γGlu-γGlu-C18 diacid])AQ[αMe4Pal]AFIEYLIAGGPSSGEPPPSGS-NH2 [Example 968] | False
H-Y[Aib]QGTFTSDFS[Orn][αMeL]LDKK([AEEA-γGlu-C18 diacid])AQ[Aib]AFIEYLIE[Aib]GESSGAPPPSGS-NH2 [Example 218] | False
H-Y[Aib]QGTFTSD[4Pal]S[Orn][αMeL]LDKK([AEEA-γGlu-γGlu-C18 diacid])AQ[αMe4Pal]AFIE[αMe4Pal]LIE[Aib]GPSSGEPPPSGSE-NH2 [Example 988] | False
H-Y[Aib]QGTFTSD[4Pal]SQ[αMeL]LDKK([γGlu-γGlu-C18 diacid])AQ[αMe4Pal]AFIEYLIE[Aib]GPSSGAPPPEGE-NH2 [Example 884] | False
H-Y[Aib]QGT[αMePhe(2-F)]TSD[4Pal][αMeS]I[αMeL]LD[Orn]K([γGlu-γGlu-C18 diacid])AQ[αMe4Pal]EFI[dE][αMeY]LVEGGPSSGAPPPSGS-NH2 [Example 696] | True
H-Y[Aib]QGT[αMePhe(2-F)]TSD[4Pal][αMeS]I[αMeL]LD[Orn]K([AEEA-AEEA-γGlu-C18 diacid])AQ[Aib][Orn]FIEYLIEGGPSSGAPEPSEG-NH2 [Example 492] | True
H-Y[Aib]QGTFTSD[4Pal]S[Orn][αMeL]LDKK([AEEA-γGlu-C18 diacid])AQ[αMe4Pal]AFIEYLIE[Aib]GESSGAPPPSGE-NH2 [Example 222] | False
H-Y[Aib]QGT[αMePhe(2-F)]TSD[4Pal]SI[αMeL]LD[Orn][Orn]([γGlu-γGlu-C18 diacid])AQ[αMe4Pal][Orn]FI[dE][αMeY]LIEGGPSSGEPPPETE-NH2 [Example 1209] | True
H-Y[Aib]QGT[αMePhe(2-F)]TSD[4Pal]SILLDKK([γGlu-γGlu-C18 diacid])AQ[Aib]AFIE[αMeY]LEEGGPSSGAPPPSGTGE-NH2 [Example 664] | True
H-Y[Aib]QGT[αMePhe(2-F)]TSD[4Pal]SI[αMeL]LDKK([γGlu-γGlu-C18 diacid])AQ[Aib]AFIEYLEEGGPSSGAPPPSGEGE-NH2 [Example 623] | True
H-Y[Aib]QGT[αMePhe(2-F)]TSD[4Pal][αMeS]I[αMeL]LD[Orn]K([γGlu-γGlu-C18 diacid])AQ[Aib][Orn]FI[dE][αMeY]LSEGGPSSGEPPPSGSE-NH2 [Example 560] | True
H-Y[Aib]QGT[αMePhe(2-F)]TSD[4Pal][αMeS]I[αMeL]LD[Orn]K([AEEA-γGlu-C18 diacid])AQ[αMe4Pal]EFI[dE][αMeY]LVEGGPSSGAPPPSGE-NH2 [Example 749] | True
H-Y[Aib]QGTFTSDFS[Orn][αMeL]LDKK([AEEA-γGlu-C18 diacid])AQ[Aib]AFIEWLLEGGHSSGEPPPEGS-NH2 [Example 127] | False
H-Y[Aib]QGTFTSDYSK[αMeL]LDKK([AEEA-γGlu-C18 diacid])AQ[Aib]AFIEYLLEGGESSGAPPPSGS-NH2 [Example 358] | False
